- Test system: BT-549
- Assay Info: NCI tumour cell line growth inhibition, 48 h
Activity calls are given as the source filed them. Rule as the data show it: active = GI50 up to about 1.1 µM and inactive = higher.
Recorded GI50 for the following compounds

Some entries whose results are on file:
Compound	GI50
COC(=O)c1c2c(cc3c1CC1(C3)Cc3ccc4c(c3C1=O)CCC4)CCC2 (stereo unspecified)	2.52 µM (inactive)
CCN(CC)CCC1(C(=O)OC)SCCc2ccc(C)cc21 (stereo unspecified)	> 100 µM (inactive)
c1ccc2nc3c(nc2c1)sc1ccccc13	39.2 µM (inactive)

Request the reported GI50 associated with CC(=O)Oc1cccc2c1C(=O)C(Br)(Br)CCC2
2.14 µM (inactive)

Request the reported GI50 associated with COc1ccc2c(c1)c1c(n2CCN(C)C)-c2ccccc2CC1
16.9 µM (inactive)

Request the reported GI50 associated with [N-]=[N+]=NC1=NNC2(C(=O)N1)c1ccccc1-c1ccccc12
> 100 µM (inactive)

Request the reported GI50 associated with Cc1ccc2c3c1[C@@H]1O[C@@H]1c1cccc(c1-3)[C@@H]1O[C@H]21
17.9 µM (inactive)

----------
- System: T47D
- Assay Info: NCI tumour cell line growth inhibition, 48 h
Calls of active or inactive are those of the source. Cut-off read from the data, not from the text of the source: active = GI50 up to about 1.1 µM and inactive = higher.
Log the outcome using a class from active, inactive

Molecule	Group Label
Cc1ccc(C(=O)/C=C2\Nc3ccccc3NC2=O)cc1	inactive
FC(F)=C(c1ccc(-c2ccc(Cl)cc2)cc1)C(F)(F)F	inactive
CCCCCCCCCCCCCCCCNc1nc(=O)n(C2CC(O)C(COP(=O)(O)OC3CC(n4cc(F)c(=O)[nH]c4=O)OC3CO)O2)cc1F (centres undefined)	inactive

Each molecule tested received a call. Report the one for COc1ccc2c(c1)c1c(n2CCN(C)C)-c2ccccc2CC1 .
inactive

----------
- Tested on: U-251
- Assay Info: NCI tumour cell line growth inhibition, 48 h
Active and inactive are the calls of the source. No stated cut-off is given here; in the data, active = GI50 up to about 1.1 µM and inactive = higher.
Attribute Measured: GI50

Some entries whose results are on file:
Compound	GI50
Cc1cc(C)c2c(c1)Nc1ccccc1P2c1ccccc1 (stereo not given)	31.7 µM (inactive)
Cc1nc2ccccc2c(=O)n1NC(=S)Nc1ccccc1	> 100 µM (inactive)
O=C1CCSC(=S)N1c1ccc(Br)c(Cl)c1	27.1 µM (inactive)
O=C1CSC2=NC3=C(CSC/C3=C\c3ccc(Cl)cc3)C(c3ccc(Cl)cc3)N12 (stereo not given)	> 10 µM (inactive)
COC1(CC[C@H](C)COC2OC(CO)C(O)C(O)C2O)O[C@H]2C[C@H]3[C@@H]4CC=C5C[C@@H](OC6OC(CO)C(O)C(OC7OC(CO)C(O)C(O)C7O)C6OC6OC(C)C(O)C(O)C6O)CC[C@]5(C)[C@H]4CC[C@]3(C)[C@H]2[C@@H]1C (stereo not given in full)	2.12 µM (inactive)

Request the reported GI50 associated with CCCCCCCCCCC(O)C1CCC(C(O)CCC(O)C2CCC(CCCCCCC[C@H](O)CC3=C[C@@H](C)OC3=O)O2)O1 (stereo not given in full)
10.2 µM (inactive)

----------
- System: HT-29
- Assay Info: NCI tumour cell line growth inhibition, 48 h
The source made the active and inactive calls. No stated cut-off is given here; in the data, active = GI50 up to about 1.1 µM and inactive = higher.
Attribute Measured: GI50

Compound	GI50
CC(C)(C)c1cc(C(O)(C(=O)O)C(=O)O)cc(C(C)(C)C)c1O	> 100 µM (inactive)
COc1ccccc1/C=N/N=C(\N)NO	18.6 µM (inactive)
O=c1[nH]nc(Cc2ccccc2)n1/N=C\c1ccccc1	> 100 µM (inactive)
COc1ccc(C)c2c1N[C@](C)([C@]1(C)Nc3c(OC)ccc(C)c3C1=O)C2=O	> 100 µM (inactive)

Request the reported GI50 associated with CC[N+]1(C)CCC(O)(/C=C/c2ccc(Cl)c(Cl)c2)C(C(=O)/C=C/c2ccc(Cl)c(Cl)c2)C1 (stereo unspecified)
2.07 µM (inactive)

Request the reported GI50 associated with CCCCCCC(C)OC(=O)/C=C(\CC(=O)OC(C)CCCCCC)C(=O)OC(C)CCCCCC (stereo unspecified)
> 100 µM (inactive)

Request the reported GI50 associated with C/C(=N\Nc1nc2ccccc2o1)c1cccc[n+]1[O-]
5.13 µM (inactive)

Entry source: ChEMBL document CHEMBL1201862
